Where do the numbers come from? From the supplement of paper PMC3545927.

Target: furin, P09958;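 also: purified furin at 1:10 enzyme:substrate in 50 mM HEPES pH 7.5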
Sequence (P09958 whole entry): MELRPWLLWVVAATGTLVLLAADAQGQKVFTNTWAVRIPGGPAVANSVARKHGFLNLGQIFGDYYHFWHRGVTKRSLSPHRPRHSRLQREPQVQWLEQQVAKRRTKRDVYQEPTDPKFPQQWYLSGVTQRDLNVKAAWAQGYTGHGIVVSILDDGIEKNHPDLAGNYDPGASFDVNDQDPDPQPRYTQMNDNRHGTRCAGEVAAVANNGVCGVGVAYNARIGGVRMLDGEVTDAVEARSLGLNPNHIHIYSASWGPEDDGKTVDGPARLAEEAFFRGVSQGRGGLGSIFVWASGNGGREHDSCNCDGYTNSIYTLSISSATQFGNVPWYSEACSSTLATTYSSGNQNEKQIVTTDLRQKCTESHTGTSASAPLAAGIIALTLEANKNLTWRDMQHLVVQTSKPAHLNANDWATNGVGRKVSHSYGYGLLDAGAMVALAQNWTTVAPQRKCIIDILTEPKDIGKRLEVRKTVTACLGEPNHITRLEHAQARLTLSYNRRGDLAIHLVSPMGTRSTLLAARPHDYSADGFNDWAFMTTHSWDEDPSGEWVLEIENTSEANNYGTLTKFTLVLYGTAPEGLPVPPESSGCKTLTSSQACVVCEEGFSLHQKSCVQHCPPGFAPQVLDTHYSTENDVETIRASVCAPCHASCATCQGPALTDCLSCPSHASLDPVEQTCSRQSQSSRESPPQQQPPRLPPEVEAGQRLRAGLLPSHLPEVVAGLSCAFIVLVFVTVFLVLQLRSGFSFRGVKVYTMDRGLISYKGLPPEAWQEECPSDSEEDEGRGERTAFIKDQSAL
Assay: furin cleavage Z-score vs untreated control; higher = more cleavage, active = 3.5 or more, inactive = 1 or less, 8 variable residues between constant flanks
Settings: 7.5 min
The other results are listed elsewhere or left out. No count for the full screen is at hand.
Use Condition met when the recorded furin cleavage Z-score is no lower than -0.2; use Condition not met when it is lower.

Record CAADARVCSCAGNASASA [HC524] ; criterion: furin cleavage Z-score no lower than -0.2. Met?
Condition met

Record CARSVRLGGPAGNASASA [FS-1795] ; criterion: furin cleavage Z-score no lower than -0.2. Met?
Condition met

Record CARTKLKLTPAGNASASA [HC1636] ; criterion: furin cleavage Z-score no lower than -0.2. Met?
Condition not met

Record CARRKKSQDGAGNASASA [FS-1775] ; criterion: furin cleavage Z-score no lower than -0.2. Met?
Condition met

Record CAADPRTWRSAGNASASA [FS-741] ; criterion: furin cleavage Z-score no lower than -0.2. Met?
Condition not met

Record CACEMEECSQAGNASASA [HC1800] ; criterion: furin cleavage Z-score no lower than -0.2. Met?
Condition not met

Record CAWTPCSGSWAGNASASA [HC1828] ; criterion: furin cleavage Z-score no lower than -0.2. Met?
Condition not met

Record CALLQRKKKLAGNASASA [FS-823] ; criterion: furin cleavage Z-score no lower than -0.2. Met?
Condition met
